Cited source: patent US6956037B2

Reported melting point is given for each of the following compounds.

The following compounds have reported results that may help.
Compound: COc1ccc(C(=O)Nc2cc(NC(=O)c3ccc(OCCCCl)cc3)ccc2C)cc1OC [Example 3]
melting point: 186 to 187 °C
//
Compound: Cc1ccc(NC(=O)c2cccc(N3CCOCC3)c2)cc1NC(=O)c1cccc(OC2CCNCC2)c1 [Example 25]
melting point: 162 to 166 °C
//
Compound: Cc1ccc(NC(=O)c2cccc(N(C)C)c2)cc1NC(=O)c1ccc(N(C)CCCN(C)C)cc1 [Example 36]
melting point: 178 to 179 °C

Enquiry: Give the value of melting point reported for the following: COc1ccc(C(=O)Nc2cc(NC(=O)c3ccc(OCCN4CCCC4)cc3)ccc2C)cc1OC [Example 4]
Return: 165 to 166 °C

Enquiry: Identify the reported melting point for the following entry. COc1ccc(C(=O)Nc2cc(NC(=O)c3ccc(OCCCN4CCOCC4)cc3)ccc2C)cc1OC [Example 5, Compound No. 3]
Return: 148 to 149 °C

Enquiry: Read off the recorded melting point for CCCS(=O)(=O)Nc1cccc(C(=O)Nc2cc(NC(=O)c3cccc(N4CCOCC4)c3)ccc2C)c1 [Example 62]
Return: 192 to 193 °C

Enquiry: Fill in reported melting point for this entry: CCS(=O)(=O)Nc1cccc(C(=O)Nc2ccc(C)c(NC(=O)c3ccc(OC)c(OC)c3)c2)c1 [Example 26]
Return: 168 to 169 °C

Enquiry: Answer with the recorded melting point of Cc1ccc(NC(=O)c2cccc(N(C)C)c2)cc1NC(=O)c1cccc(NS(C)(=O)=O)c1 [Example 27] only.
Return: 239 to 240 °C

Enquiry: In one line, give reported melting point of the entry COc1ccc(C(=O)Nc2cc(NC(=O)c3cccc(OCC(=O)O)c3)ccc2C)cc1OC [Example 18] .
Return: 206 to 207 °C

Enquiry: Identify the reported melting point for the following entry. COc1ccc(C(=O)Nc2cc(NC(=O)c3ccc(N(C)CCCN(C)C)cc3)ccc2C)cc1OC [Example 20]
Return: 164 to 165 °C

Enquiry: Give me measured melting point, please, for this compound: COc1ccc(C(=O)Nc2cc(NC(=O)c3cccc(NS(C)(=O)=O)c3)ccc2C)cc1OC [Example 1]
Return: > 300 °C

Enquiry: Quote melting point reported for Cc1ccc(NC(=O)c2cccc(N(C)C)c2)cc1NC(=O)c1ccccc1NCCCN1CCOCC1 [Example 35] please.
Return: 239 to 240 °C
